FYI, the data here is from BindingDB's records for doi:10.1124/jpet.102.047183.

Ki, Histamine H1 receptor (Homo sapiens, UniProt P35367), per-entry values.

# example entries with known answers
S=C(NC1CCCCC1)N1CCC(c2cnc[nH]2)CC1 | > 10 µM
O=C(c1ccc(OCCCc2cnc[nH]2)cc1)C1CC1 | > 10 µM
C[C@@H](NC(=O)c1ccco1)C(=O)N1CCN(CCCOc2ccc(C(=O)C3CC3)cc2)CC1 | 3.98 µM

Now consider the entry below.
# lookup: Ki of NC(=NCc1ccc(Cl)cc1)SCCCc1cnc[nH]1
6.31 µM

###

Ki, Histamine H2 receptor (Homo sapiens, UniProt P25021), per-entry values.

# example entries with known answers
S=C(NC1CCCCC1)N1CCC(c2cnc[nH]2)CC1 | > 10 µM
C[C@@H](NC(=O)c1ccco1)C(=O)N1CCN(CCCOc2ccc(C(=O)C3CC3)cc2)CC1 | > 10 µM

Now consider the entry below.
# query: Ki | item NC(=NCc1ccc(Cl)cc1)SCCCc1cnc[nH]1 | system: Histamine H2 receptor (Homo sapiens, UniProt P25021)
2.51 µM
